- Assay Explanation: qHTS for Inhibitors of binding or entry into cells for Marburg Virus; also: potency is read from the fitted curve at half-maximal effect
- Experimental Setup: Marburg virus pseudotype entry/binding inhibition, cell-based; series mostly up to 49.2 µM
Screen size: about 18,000 compounds; about 1,200 (6.7%) were called active. About 16% were inconclusive and are not listed. The sample as a whole holds a higher share of actives than the screen did.
Attribute Measured: Potency

Consider the following illustrative entries.
COC12CC[C@@]3(C[C@@H]1C(C)(O)C(C)(C)C)[C@H]1Cc4ccc(O)c5c4[C@@]3(CCN1CC1CC1)[C@H]2O5 (some centres undefined) | 15.8 µM (active)
COC1CC(OC2CC[C@@]3(C=O)C4CC[C@]5(C)C(C6=CC(=O)OC6)CC[C@@]5(O)C4CC[C@]3(O)C2)OC(C)C1O (some centres undefined) | 0.251 µM (active)
COc1cc(Nc2nccc(-c3cnn4ncccc34)n2)cc(OC)c1 | 3.53 µM (active)

# ---- query compound ----
Retrieve Potency measured for `S=C(NCCCc1cnc[nH]1)NCCCN(Cc1ccc(Cl)c(Cl)c1)c1ccc(Br)cn1` and print it.
20 µM (active)

Data origin: PubChem BioAssay AID720532
